# System: Escherichia coli TOP10;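 further: peptides expressed intracellularly from a pBAD plasmid library in pooled LB shake-flask culture, induced with 0.3% L-arabinose, DNA abundance read by NGS, three biological replicates, DESeq2 with apeglm shrinkage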
# ASSAY REMARKS: shrunken log2 fold change of peptide-encoding DNA abundance (4.5 h post-induction vs induction); higher = less antimicrobial activity (less host growth inhibition)
# MEASUREMENT CONDITIONS: time post-induction: 4.5 h; library: site-saturation at positions 5, 18, 19, 20
Label scheme for shrunken log2 fold change: lower than -0.1 is FALSE, -0.1 and above is TRUE.

INSERT INTO results (seq, classification) VALUES
  ('RRIRPRPPRLPRPRPRPYNAPRP', 'FALSE'),
  ('RRIRTRPPRLPRPRPRPKKDPRP', 'FALSE'),
  ('RRIRARPPRLPRPRPRPSGWPRP', 'TRUE'),
  ('RRIRGRPPRLPRPRPRPGSMPRP', 'TRUE'),
  ('RRIRNRPPRLPRPRPRPSCGPRP', 'FALSE');

Prompt: Decide: shrunken log2 fold change of RRIRARPPRLPRPRPRPQIKPRP >= -0.1?
Response: TRUE

Prompt: And the next one, RRIRVRPPRLPRPRPRPWEIPRP ?
Response: TRUE

Prompt: Entry to check: RRIRNRPPRLPRPRPRPGQKPRP
Response: TRUE
